// provenance: paper PMC7146544

- Tested on: P. falciparum
- assayText: P. falciparum asexual blood-stage growth inhibition (LDH or SYBR Green flow cytometry)
- Assay type: cell-based, Plasmodium falciparum
- testSettings: Plasmodium falciparum, 3D7, 3D7 parasite line, asexual blood stage; read-out: EC50, inhibition of P. falciparum growth
measuredEndpoint: EC50 (nM)
API: value field is a number in nM; no unit string.

# lookup: EC50 of CCC1(CC)CC(=O)N([C@@H]2CCOc3ccc(C(=O)N[C@H]4CC(C)(C)Oc5ccccc54)cc32)C(=N)N1
0.6

====

- assayText: Bioanalytical determination of WM382 in mouse blood by LC-MS/MS
- Type: in vivo
- testSettings: SCID (huSCID), whole blood, po, 10 mg/kg, oral daily dose 10 mg/kg, huSCID mice, read-out: AUC dose 4
measuredEndpoint: AUC

Would you kindly share the measured AUC for CCC1(CC)CC(=O)N([C@@H]2CCOc3ccc(C(=O)N[C@H]4CC(C)(C)Oc5ccccc54)cc32)C(=N)N1 [WM382] ?
2620 nM·h

====

- assayText: Bioanalytical determination of WM382 in mouse blood by LC-MS/MS
- Type: in vivo
- testSettings: SCID (huSCID), whole blood, po, 3 mg/kg, oral daily dose 3 mg/kg, huSCID mice, read-out: AUC dose 4
measuredEndpoint: AUC (µM·h)
Use µM·h as the unit, but write only the number.

I have this compound here, CCC1(CC)CC(=O)N([C@@H]2CCOc3ccc(C(=O)N[C@H]4CC(C)(C)Oc5ccccc54)cc32)C(=N)N1 [WM382] , and I need its recorded AUC.
0.37

====

- assayText: Bioanalytical determination of WM382 in mouse blood by LC-MS/MS
- Assay type: in vivo
- testSettings: SCID (huSCID), whole blood, po, 30 mg/kg, oral daily dose 30 mg/kg, huSCID mice, read-out: AUC dose 4
measuredEndpoint: AUC (µM·h)
Hi! Could you send only the number? It should be in µM·h, unit omitted.

Any idea what AUC was measured for CCC1(CC)CC(=O)N([C@@H]2CCOc3ccc(C(=O)N[C@H]4CC(C)(C)Oc5ccccc54)cc32)C(=N)N1 [WM382] ?
5.17

====

- assayText: Bioanalytical determination of WM382 in mouse blood by LC-MS/MS
- Assay type: in vivo
- testSettings: SCID (huSCID), whole blood, po, 30 mg/kg, oral daily dose 30 mg/kg, huSCID mice, read-out: AUC dose 1
measuredEndpoint: AUC (µM·h)
Answer in µM·h, number only, no unit symbol.

Name the recorded AUC for CCC1(CC)CC(=O)N([C@@H]2CCOc3ccc(C(=O)N[C@H]4CC(C)(C)Oc5ccccc54)cc32)C(=N)N1 .
7.04

====

- assayedSystem: recombinant PMX protein (rPMX) (Plasmodium falciparum, UniProt Q8IAS0)
- Sequence (Q8IAS0 222-573): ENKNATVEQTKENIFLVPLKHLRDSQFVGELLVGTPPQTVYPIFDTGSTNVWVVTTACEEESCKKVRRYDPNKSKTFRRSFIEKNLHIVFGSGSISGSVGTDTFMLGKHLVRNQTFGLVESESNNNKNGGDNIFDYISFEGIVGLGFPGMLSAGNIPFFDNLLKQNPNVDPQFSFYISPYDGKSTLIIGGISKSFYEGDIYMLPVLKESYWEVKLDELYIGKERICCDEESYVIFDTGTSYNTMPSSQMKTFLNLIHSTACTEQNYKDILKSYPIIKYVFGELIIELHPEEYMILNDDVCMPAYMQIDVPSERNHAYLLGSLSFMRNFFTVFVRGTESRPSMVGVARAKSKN
- assayText: biochemical
measuredEndpoint: Ki (nM)
// units = nM; emit number, no label

As a guide, the following entries are already answered.
compound: CCC1(CC)CC(=O)N([C@@H]2CCOc3ccc(C(=O)N[C@H]4CC(C)(C)Oc5ccccc54)cc32)C(=N)N1 [WM382]
unitSpec: nM
numericResult: 0.035
--
compound: CC(NC(=O)c1cccc(C(c2ccccc2)N2C(=N)NC(C)(C(C)C)CC2=O)c1)c1ccccc1 (racemic) [WM4]
unitSpec: nM
numericResult: 0.5

Using the record for CC(C)CC(c1ccc(C(F)(F)F)c(C(=O)N2Cc3nccnc3C2)c1)N1C(=N)NC(CC2CC2)(c2ccccc2)CC1=O (racemic) [WM5] , report its Ki.
1.9

====

- assayText: Bioanalytical determination of WM382 in mouse blood by LC-MS/MS
- Format: in vivo
- testSettings: SCID (huSCID), whole blood, po, 3 mg/kg, oral daily dose 3 mg/kg, huSCID mice, read-out: AUC dose 1
measuredEndpoint: AUC (µM·h)
Field format: number, assumed µM·h, no unit text.

Entry under review: CCC1(CC)CC(=O)N([C@@H]2CCOc3ccc(C(=O)N[C@H]4CC(C)(C)Oc5ccccc54)cc32)C(=N)N1 . Reported AUC?
0.5

====

- Test system: P. falciparum
- assayText: P. falciparum asexual blood-stage growth inhibition (LDH or SYBR Green flow cytometry)
- Type: cell-based, Plasmodium falciparum
- testSettings: 3D7 parasite line, asexual blood stage; read-out: EC50, inhibition of P. falciparum growth
- Experimental: For High Throughput Screening (HTS) of compounds we used the lactate dehydrogenase (LDH) assay to detect parasitemia ([Makler et al., 1993], [Oduola et al., 1997]) formatted in a 384 well assay using an Echo555 (Labcyte). […] Plates were thawed at room temperature for at least 4 h prior to LDH activity being measured. […] Plates were shaken to ensure mixing and absorbance at 650 nm was measured in an EnVision (PerkinElmer) plate reader after 30 min of incubation at room temperature. […]
measuredEndpoint: pEC50
// pEC50 here means minus log10 of the molar concentration (mol/L)

molecule: CC(C)CC(c1ccc(C(F)(F)F)c(C(=O)N2Cc3nccnc3C2)c1)N1C(=N)NC(CC2CC2)(c2ccccc2)CC1=O (stereo not shown) [S-WM5]
measuredEndpoint: pEC50
numericResult: 6.16
--
molecule: CC(C)CC(c1ccc(C(F)(F)F)c(C(=O)N2Cc3nccnc3C2)c1)N1C(=N)NC(CC2CC2)(c2ccccc2)CC1=O (stereo not shown) [R-WM5]
measuredEndpoint: pEC50
numericResult: 8.00
--
molecule: CC(NC(=O)c1cccc(C(c2ccccc2)N2C(=N)NC(C)(C(C)C)CC2=O)c1)c1ccccc1 (stereo not shown) [S-WM4]
measuredEndpoint: pEC50
numericResult: 6.36

Quick one: pEC50 of CC(NC(=O)c1cccc(C(c2ccccc2)N2C(=N)NC(C)(C(C)C)CC2=O)c1)c1ccccc1 (stereo not shown) [R-WM4] ?
8.34

====

- System: WM5 and 4 resistant P. falciparum
- assayText: microbe, parasite or virus in culture
- Format: cell-based, Plasmodium falciparum
- testSettings: Plasmodium falciparum, 3D7, read-out: EC50, 3D7-WM5.1, WM5-resistant line 3D7-WM5.1
- Procedure: After 72 h incubation at 37°C each well was fixed at room temperature for 30 min with 50 μL of 0.25% glutaraldehyde (ProSciTech) diluted in PBS. […] 50,000 cells were counted by flow cytometry using a Cell Lab Quanta SC – MPL Flow Cytometer (Beckman Coulter) ([Bacon et al., 2007]). Growth was expressed as a percentage of the parasitemia obtained using a vehicle control. […] EC50 values were determined using GraphPad Prism. […]
measuredEndpoint: EC50 (µM)
Return type: number; implicit unit µM.

Please review the entries below; each comes with its answer.
compound: CCC1(CC)CC(=O)N([C@@H]2CCOc3ccc(C(=O)N[C@H]4CC(C)(C)Oc5ccccc54)cc32)C(=N)N1
EC50 / µM: 0.00204
//
compound: CC(NC(=O)c1cccc(C(c2ccccc2)N2C(=N)NC(C)(C(C)C)CC2=O)c1)c1ccccc1 (racemic)
EC50 / µM: 0.0932

Next compound, EC50 to be filled in.
Which EC50 value is on record for CC(C)CC(c1ccc(C(F)(F)F)c(C(=O)N2Cc3nccnc3C2)c1)N1C(=N)NC(CC2CC2)(c2ccccc2)CC1=O (racemic) ?
0.172

====

The following compounds have recorded pKi on P. falciparum aspartic protease, PMV (Plasmodium falciparum).
Sequence (Q8I6Z5 whole entry): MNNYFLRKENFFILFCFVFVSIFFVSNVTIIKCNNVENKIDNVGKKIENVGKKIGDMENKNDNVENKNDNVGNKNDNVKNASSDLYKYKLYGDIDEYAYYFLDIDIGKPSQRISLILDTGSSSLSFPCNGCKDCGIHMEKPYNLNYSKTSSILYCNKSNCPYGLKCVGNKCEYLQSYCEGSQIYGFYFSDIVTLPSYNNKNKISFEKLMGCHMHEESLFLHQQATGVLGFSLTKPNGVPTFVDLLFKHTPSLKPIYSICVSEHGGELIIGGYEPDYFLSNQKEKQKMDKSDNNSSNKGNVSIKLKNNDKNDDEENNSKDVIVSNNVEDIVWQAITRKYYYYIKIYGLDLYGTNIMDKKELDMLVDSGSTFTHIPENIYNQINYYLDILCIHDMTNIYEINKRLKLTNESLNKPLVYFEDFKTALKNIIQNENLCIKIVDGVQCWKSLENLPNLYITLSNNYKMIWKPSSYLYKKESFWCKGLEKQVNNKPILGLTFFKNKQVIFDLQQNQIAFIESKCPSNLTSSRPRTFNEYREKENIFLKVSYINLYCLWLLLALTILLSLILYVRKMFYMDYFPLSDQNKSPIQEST
Please keep in mind that pKi is minus log10 of the molar concentration; only the number is needed.

Solved cases below.
compound: CC(C)CC(c1ccc(C(F)(F)F)c(C(=O)N2Cc3nccnc3C2)c1)N1C(=N)NC(CC2CC2)(c2ccccc2)CC1=O (racemic) [WM5]
pKi: 5.48
//
compound: CC(NC(=O)c1cccc(C(c2ccccc2)N2C(=N)NC(C)(C(C)C)CC2=O)c1)c1ccccc1 (racemic) [WM4]
pKi: 4.70

Consider the additional compound presented here.
# get_value(readout='pKi', item= CCC1(CC)CC(=O)N([C@@H]2CCOc3ccc(C(=O)N[C@H]4CC(C)(C)Oc5ccccc54)cc32)C(=N)N1 [WM382] )
4.87

====

- assayText: Bioanalytical determination of WM382 in mouse blood by LC-MS/MS
- Format: in vivo
- testSettings: SCID (huSCID), whole blood, po, 1 mg/kg, oral daily dose 1 mg/kg, huSCID mice, read-out: AUC dose 1
measuredEndpoint: AUC (µM·h)
Numeric answer only, unit µM·h assumed.

What value of measured AUC is listed for CCC1(CC)CC(=O)N([C@@H]2CCOc3ccc(C(=O)N[C@H]4CC(C)(C)Oc5ccccc54)cc32)C(=N)N1 ?
0.06

====

Catalogue of molecules with associated pEC50
- Test system: WM5 and 4 resistant P. falciparum
- assayText: microbe, parasite or virus in culture
- Assay type: cell-based, Plasmodium falciparum
- testSettings: Plasmodium falciparum, 3D7, read-out: EC50, 3D7-WM4.1, WM4-resistant line 3D7-WM4.1
Entry type: numeric. Quantity: pEC50, the -log10 of concentration in molar units.

Examples with answers:
molecule: CC(C)CC(c1ccc(C(F)(F)F)c(C(=O)N2Cc3nccnc3C2)c1)N1C(=N)NC(CC2CC2)(c2ccccc2)CC1=O (racemic)
assayedSystem: WM5 and 4 resistant P. falciparum
pEC50: 6.69
//
molecule: CCC1(CC)CC(=O)N([C@@H]2CCOc3ccc(C(=O)N[C@H]4CC(C)(C)Oc5ccccc54)cc32)C(=N)N1
assayedSystem: WM5 and 4 resistant P. falciparum
pEC50: 8.73

# context switch: different molecule, same pEC50
What measured pEC50 goes with CC(NC(=O)c1cccc(C(c2ccccc2)N2C(=N)NC(C)(C(C)C)CC2=O)c1)c1ccccc1 (racemic) ?
6.95
